- Test system: Trypanosoma brucei brucei
- test.summary: Antitrypanosomal activity against blood stream form of Trypanosoma brucei brucei BF427 after 48 hrs by Alamar Blue assay
- Assay type: functional, organism-based
- setup.conditions: BF427, 48 h
Rule: IC50 below 2000 nM gives 1 (yes), anything at or above gives 0 (no).

Solved entries (count: 4):
O=C(C[C@@H]1CC[C@@H](/C=C/C(=O)c2ccccc2)OO1)OCc1ccccc1; 1 (yes)
CC(=O)/C=C\[C@@H]1CC[C@@H](CC(=O)OCc2ccccc2)OO1; 1 (yes)
CC(C)(C)OC(=O)/C=C\[C@@H]1CC[C@@H](CC(=O)OCc2ccccc2)OO1; 1 (yes)
C=C[C@@H]1CC[C@@H](CC(=O)OCc2ccccc2)OO1; 0 (no)

query: Does the reported IC50 of O=C(/C=C/[C@@H]1CC[C@@H](CC(=O)OCc2ccccc2)OO1)OCc1ccccc1 stay below 2000 nM?
result: 1 (yes)
